# Tested system: NKCC1 (Mus musculus)
# Construct: primary neuronal cultures of dissociated hippocampal neurons were prepared from E18 C57BL/6J mice; endogenous in cells; host or cells: primary hippocampal neurons from E18 C57BL/6J mice, 3 DIV
# Sequence (P55012 whole entry): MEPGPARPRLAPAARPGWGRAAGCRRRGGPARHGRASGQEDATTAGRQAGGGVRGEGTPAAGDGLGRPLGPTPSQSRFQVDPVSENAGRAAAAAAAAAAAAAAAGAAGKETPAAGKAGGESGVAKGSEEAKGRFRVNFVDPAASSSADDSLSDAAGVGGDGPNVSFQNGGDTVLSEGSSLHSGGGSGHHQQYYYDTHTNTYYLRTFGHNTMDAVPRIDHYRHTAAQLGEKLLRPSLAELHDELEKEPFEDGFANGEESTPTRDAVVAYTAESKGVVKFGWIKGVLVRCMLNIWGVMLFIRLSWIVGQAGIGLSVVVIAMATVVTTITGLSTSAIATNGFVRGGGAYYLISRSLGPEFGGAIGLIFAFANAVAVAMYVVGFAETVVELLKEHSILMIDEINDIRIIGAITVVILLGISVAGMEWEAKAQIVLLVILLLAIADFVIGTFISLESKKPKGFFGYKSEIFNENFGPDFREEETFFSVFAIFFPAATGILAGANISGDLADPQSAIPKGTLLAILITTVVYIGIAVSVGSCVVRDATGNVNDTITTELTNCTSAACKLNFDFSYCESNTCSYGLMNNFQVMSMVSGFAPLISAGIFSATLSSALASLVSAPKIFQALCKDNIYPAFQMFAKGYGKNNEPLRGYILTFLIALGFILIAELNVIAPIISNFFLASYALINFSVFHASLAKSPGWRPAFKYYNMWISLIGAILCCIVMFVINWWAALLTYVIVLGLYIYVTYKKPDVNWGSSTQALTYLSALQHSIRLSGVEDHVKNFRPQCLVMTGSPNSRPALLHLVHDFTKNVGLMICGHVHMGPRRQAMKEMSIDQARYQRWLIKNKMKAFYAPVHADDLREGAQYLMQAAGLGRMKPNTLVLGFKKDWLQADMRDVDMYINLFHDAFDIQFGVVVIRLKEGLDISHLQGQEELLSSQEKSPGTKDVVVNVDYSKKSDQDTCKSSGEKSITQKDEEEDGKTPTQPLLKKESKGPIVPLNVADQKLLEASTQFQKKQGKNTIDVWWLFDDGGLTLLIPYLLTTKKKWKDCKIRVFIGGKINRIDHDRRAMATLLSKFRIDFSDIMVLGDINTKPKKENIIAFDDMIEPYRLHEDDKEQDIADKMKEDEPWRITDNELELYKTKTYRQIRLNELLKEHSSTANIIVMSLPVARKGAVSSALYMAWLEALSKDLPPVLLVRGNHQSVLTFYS
# Assay name: Ca2+ influx assay in immature primary neuronal cultures (indirect measure of NKCC1 inhibition)
# Assay type: cell-based
# Test parameters: 100 μM; cultured neurons, 3 DIV
inhibition at 100 µM values for the compounds below.
The reply should contain only the number, in %.

Sample answers from the record:
CCCCNc1cc(C(=O)O)cc(S(N)(=O)=O)c1Oc1ccccc1 [bumetanide, reference compound] = 54.7
CNS(=O)(=O)c1cc(C(=O)O)ccc1NCCCCCCCC(F)(F)F [Compound 32] = 40.4

# input for lookup
According to the records, this compound O=C(O)c1ccc(NCCCCCCCC(F)(F)F)c(S(=O)(=O)N2CCCC2)c1 [Compound 33] displays inhibition at 100 µM of 50.9

---

# Assay name: Aqueous kinetic solubility in PBS pH 7.4
# Type: physicochemical
# Test parameters: phosphate buffered saline (PBS); aqueous kinetic solubility from 10 mM DMSO solution in PBS pH 7.4; target concentration 250 μM (final DMSO 2.5%)
Readout type: solubility at 24 h (µM)
The reply should contain only the number, in µM.

Sample answers from the record:
O=C(O)c1ccc(NCCCCCCCC(F)(F)F)c(S(=O)(=O)NC2CCCCC2)c1 = 9
CN(C)S(=O)(=O)c1cc(C(=O)O)c(Cl)cc1NCCCCCCCC(F)(F)F = 241

# input for lookup
According to the records, this compound CCCCCCNc1ccc([N+](=O)[O-])cc1S(=O)(=O)N(C)C displays solubility at 24 h of 1
